Tested on: SK-MEL-28
Test: NCI tumour cell line growth inhibition, 48 h
Active and inactive are the calls of the source. No stated cut-off is given here; in the data, active = GI50 up to about 1.1 µM and inactive = higher.
Outcome field: choose from active, inactive

C/C=C\C(CC(=O)O)CC(=O)NCCC1CN(S(=O)(=O)C(F)(F)F)c2ccccc21 (stereo not given) | inactive
CN1CCCNCCN(CCc2ccccn2)CCCN(C)CC1 | inactive
CCCCN(CCCC)CC(O)c1cc(-c2ccc(C(F)(F)F)cc2)nc(-c2ccc(C(F)(F)F)cc2)c1 (stereo not given) | inactive
ON/N=C/c1cc2c(cc1Br)OCO2 | inactive
COc1cc(C(=O)Oc2c(C#N)sc3c2c(=O)n(-c2ccccc2)c(=S)n3-c2ccccc2)cc(OC)c1OC | inactive

What call does the record list for `O=C1C(Br)=CC2(C=C1Br)CCNC1=C2C2=NCCc3c[nH]c(c32)C1=O` ?
active

Entry `C[n+]1c2ccccc2c(C(=O)Nc2ccc(S(=O)(=O)Nc3ccnn3-c3ccccc3)cc2)c2ccccc21` : call = ?
inactive

Would you mind telling me which call this test gave `Nn1c(-c2ccccc2)nn(C(=O)c2ccccc2)c1=O` ?
inactive

Please indicate how the test categorized O=C(O)CCC(NC(=O)c1ccc(CNc2nc3ccccc3nc2C(=O)O)cc1)C(=O)O (stereo not given) .
inactive

Call for entry `Cc1nc2ccccc2c(=O)n1NC(=O)c1ccc([N+](=O)[O-])cc1` :
inactive

###

Tested on: DU-145
Experiment: NCI tumour cell line growth inhibition, 48 h
Activity calls are given as the source filed them. Rule as the data show it: active = GI50 up to about 1.1 µM and inactive = higher.
The categories you may choose from are true (1) = active, false (0) = inactive

C=C(Cl)[C@](Cl)(CBr)CC[C@@H](Br)C(C)(C)Cl | true (1)
COc1cccc(C(C#N)NNC(=O)c2c(Cl)c(Cl)c(Cl)c(Cl)c2-c2nc3cc(C(=O)c4ccccc4)ccc3[nH]2)c1O (centres undefined) | false (0)
COc1cc(C(c2c(O)c3ccccc3oc2=O)c2c(O)c3ccccc3oc2=O)ccc1O | false (0)
COc1cc2c(cc1C)NC(=O)/C2=C/c1c(Cl)n(C)c2ccccc12 | false (0)
Fc1cccc(C2SCc3nc4cc5ccccc5cc4n32)c1 (centres undefined) | false (0)
CN1C(CC(O)c2ccccc2)CCCC1CC(O)(c1ccccc1)c1ccccc1 (centres undefined) | false (0)

Recorded call for `O=C(NCCCNCCCNC(=O)c1cc(-c2ccccc2)nc2ccccc12)c1cc(-c2ccccc2)nc2ccccc12` ?
false (0)

I would be grateful if you could indicate the recorded call for `Oc1ccc(Cl)cc1C1=Nn2c(COc3ccc4c(c3)CCCC4)nnc2SC1` .
false (0)

# lookup: test call for CC(=O)O[C@H]1C(=O)[C@@]2(C)C(C(OC(=O)c3ccccc3)[C@]3(O)CC(OC(=O)C(O)C(NC(=O)c4cccc(Cl)c4)c4ccccc4)C(C)=C1C3(C)C)[C@]1(OC(C)=O)CO[C@@H]1C[C@@H]2O (some centres undefined)
true (1)

###

Tested on: UACC-257
Assay: NCI tumour cell line growth inhibition, 48 h
Active and inactive are the calls of the source. Rule as the data show it: active = GI50 up to about 1.1 µM and inactive = higher.
So I've got a bunch of compounds here, and I need their GI50 values.

// below: answered compounds
N#Cc1c(N)nc2c(/N=N\c3ccccc3)c(N)nn2c1Nc1ccccc1 | 18.7 µM (inactive)
[N-]=[N+]=CC(=O)OC1Cc2ccccc2C1 | > 100 µM (inactive)
CCOC(=O)CNC1=NNS(=O)(=O)c2ccccc21 | > 100 µM (inactive)
Oc1ccc2ccccc2c1/N=N/c1ccc(/N=N/c2ccccc2)cc1 | > 100 µM (inactive)

I have 4 compounds here; please give me GI50 for each one.
1. CN1C(c2ccccc2)CC(=NO)CC1c1ccccc1 (stereo not given)
2. CC(C)(C)n1c(=O)n2c(-c3ccccc3)c(-c3ccccc3)n2c1=O
3. CC1=NCCN=C(C)C1/N=N/c1ccc2[nH]c(C)nc2c1
4. O=P1(C(O)/C=C/c2ccccc2)N(Cc2ccccc2)[C@H](c2ccccc2)[C@@H](c2ccccc2)N1Cc1ccccc1 (stereo not given in full)

["55.1 µM (inactive)", "> 100 µM (inactive)", "11.3 µM (inactive)", "8.97 µM (inactive)"]

Each of the following entries comes with a recorded value; kindly state GI50 for each.
1. O=C(NCCCNCCCNC(=O)c1cc(-c2ccccc2)nc2ccccc12)c1cc(-c2ccccc2)nc2ccccc12
2. Oc1ccc(Cl)cc1C1=Nn2c(COc3ccc4c(c3)CCCC4)nnc2SC1

1.97 µM (inactive)
16.3 µM (inactive)

###

Tested on: SF-268
Assay: NCI tumour cell line growth inhibition, 48 h
Active and inactive are the calls of the source. Cut-off read from the data, not from the text of the source: active = GI50 up to about 1.1 µM and inactive = higher. Starred links: 1 amine or outer side, 2 acyl side, 3 side chain; linkers in the order of their positions; H or OH if unused. Non-standard residues stand in square brackets, D forms with d. Residues, ends and D or L forms follow the SMILES beside them. X4 = C[C@H](N[*:1])C(=O)C(C)(C)C(=O)[*:2]; Hmpa(2S,3S) = CC[C@H](C)[C@H](O)C(=O)O; NMeY = CN[C@@H](Cc1ccc(O)cc1)C(=O)O; NMeL = CN[C@@H](CC(C)C)C(=O)O; NMeV = CN[C@H](C(=O)O)C(C)C; βAla = NCCC(=O)O
Valid outcomes are listed here; reply with one: true (active), false (inactive)

Some solved cases for reference:
O=C1C=C/C(=N\c2ccc3c(c2)C(Br)c2ccccc2-3)O1 (stereo not drawn) | false
CN(C)c1ccc(/C=C/c2nc3ccccc3s2)cc1 | false
CC[C@H](C)[C@@H]1OC(=O)CCNC(=O)[C@@H](C)NC(=O)C(C)(C)C(=O)[C@H](C)NC(=O)[C@H](Cc2ccc(OC)cc2)N(C)C(=O)[C@H](C(C)C)N(C)C(=O)CNC(=O)[C@H](CC(C)C)N(C)C(=O)CNC1=O (cyclo(G[NMeL]G[NMeV][NMeY](Me)[X4][dA][βAla][Hmpa(2S,3S)])) | true

State the result this test recorded for CCOC(=O)c1c(-c2ccc(OC)c(O)c2)c(C#N)c(=S)n(C2OC(CO)C(O)C(O)C2O)c1-c1ccccc1 (stereo not drawn) .
false

For CC1(C)/C(=N\O)C2(OS(=O)(=O)C(F)(F)F)CCC1C2 (stereo not drawn) , which call appears in the assay record?
false

Outcome? CC(=O)N(C(=O)CC(=O)N1N=C(c2ccccc2)C(/N=N/c2ccccc2[N+](=O)[O-])C1=O)c1ccc(Cl)cc1 (stereo not drawn)
false

Which result was noted for this molecule in the test: `COc1cc2c(cc1C)NC(=O)/C2=C/c1c(Cl)n(C)c2ccccc12`
false

Field: outcome | Entry: Cc1cccc2c1CC1(C2)Cc2c(C)cccc2C1=O (stereo not drawn)
false

###

System: DU-145
Assay: NCI tumour cell line growth inhibition, 48 h
Calls of active or inactive are those of the source. Rule as the data show it: active = GI50 up to about 1.1 µM and inactive = higher.
PARAMETER: GI50

CN(C)S(=O)(=O)c1nc(Cl)c2nc[nH]c2n1 | > 100 µM (inactive)
COc1ccc(OC)c(/C=C2/C(=O)N/C(=N\C(C)=O)N2C)c1 | > 100 µM (inactive)
COC(=O)c1cc2c(c3c1CC(Cc1ccccc1)C3=O)CCC2 (stereo unspecified) | 61.4 µM (inactive)

For each of the compounds below, note its GI50.
1. O=C1c2c(O)cccc2C(C2OC(CO)C(O)C(O)C2O)c2cc(CO)cc(O)c21 (stereo unspecified)
2. CCOP(=O)(OCC)C(c1ccc(F)cc1)N(C(=O)NC(F)(F)F)c1cccc(C(F)(F)F)c1 (stereo unspecified)

["> 100 µM (inactive)", "> 100 µM (inactive)"]

Please give GI50 for each item listed below.
1. CCOC(=O)CSc1nc(-c2ccc(OC)cc2)c(C#N)c(=O)[nH]1
2. COc1cc2c(cc1O)C(Cc1ccc(OCc3ccccc3)c(OCc3ccccc3)c1)N(C(=O)NCCc1ccccc1)CC2 (stereo unspecified)

> 100 µM (inactive)
> 100 µM (inactive)

Take each entry in turn and give its GI50.
1. CCOC(=O)/C=C(/C(=O)OCC)n1cc(C)c(=O)n(Cc2cnnn2CCCCOC(C)=O)c1=O
2. CC(C)c1cc(C(C)C)c(Cl)c(Cl)c1O.CC(C)c1cc(Cl)c(O)c(C(C)C)c1Cl

1: > 100 µM (inactive); 2: 35 µM (inactive)

###

Tested on: A549
Assay: NCI tumour cell line growth inhibition, 48 h
Counter-ions that a name gives are not always drawn. The source made the active and inactive calls. Rule as the data show it: active = GI50 up to about 1.1 µM and inactive = higher.
PARAMETER: GI50

Past entries and their recorded results:
COC1CC(OC2C(C)OC(OC3C(C)OC(OC4C(O)CC(O[C@H]5CC[C@@]6(C)C(=CC[C@]7(O)[C@@H]6C[C@@H](OC(C)=O)[C@@]6(C)[C@]7(O)CC[C@@]6(O)C(C)=O)C5)OC4C)CC3OC)CC2OC)OC(C)C1O (some centres undefined) | > 12.5 µM (inactive)
CC1(c2cccs2)CC(c2cccs2)=C(C#N)C(=C(C#N)C#N)N1 (centres undefined) | 22 µM (inactive)

Value sought for every listed molecule: GI50.
1. O=C(N/C(=C\c1c(O)ccc2ccccc12)c1nc2ccccc2[nH]1)c1ccccc1
2. COc1ccc(-c2c(C3=NCCCN3)nnn2-c2ccccc2)cc1

> 100 µM (inactive)
> 100 µM (inactive)

Would you mind listing GI50 for each of the following molecules?
1. O=C(O)CCN1CCN(CCC(=O)O)CCN(CCC(=O)O)CC1
2. CCN1C=C/C(=C\C=C\c2cc[n+](CC)c3ccccc23)c2ccccc21
3. C[Si](C)(C)/C=C/CN1C(=O)CCC1O (centres undefined)
4. O=C1C(Cl)=C(Cl)C(=O)N1c1ccccc1Cl
5. CCCC(=O)c1ccc2c(ccc(=O)n2C)c1
6. CC(=O)N(C)c1ccc(Nc2cc(C)nc3ccc4nc[nH]c4c23)cc1 [ACODAZOLE HYDROCHLORIDE]
7. COc1cccc(NC(=O)CC(=O)Nc2cccc(OC)c2)c1

1: 69.3 µM (inactive); 2: 3.77 µM (inactive); 3: > 100 µM (inactive); 4: > 100 µM (inactive); 5: > 100 µM (inactive); 6: 7.59 µM (inactive); 7: > 100 µM (inactive)

Hi! Can you tell me GI50 for each of these molecules?
1. COc1cc2c(cc1C)NC(=O)/C2=C/c1c(Cl)n(C)c2ccccc12
2. CO/N=C(\C)c1cccc(Nc2c3ccccc3nc3occc23)c1
3. COC(=O)C1=C(OC(=O)/C(=C/c2ccccc2)c2ccc([N+](=O)[O-])cc2)C(C(=O)OC)[C@@]2(O)[C@@H](C(=O)OC)[C@H](C)C[C@@H]1[C@@H]2C(=O)OC (some centres undefined)
4. O=S1(=O)OCc2ccccc21
5. N#CC(CC(=O)O)=C(c1ccccc1)c1ccccc1
6. CCn1c(SCC(=O)N/N=C2\SCC(=O)N2c2ccc(C)cc2)nc2ccccc2c1=O
7. CC(=O)OCC1OC(N=[N+]=[N-])C(OC(C)=O)C(OC(C)=O)C1OC1OC(COC(C)=O)C(OC(C)=O)C(OC(C)=O)C1OC(C)=O (centres undefined)

10.2 µM (inactive)
11.7 µM (inactive)
76.2 µM (inactive)
> 100 µM (inactive)
> 100 µM (inactive)
21.2 µM (inactive)
> 100 µM (inactive)

Query: GI50; subject: O=C1c2c(O)cccc2C(C2OC(CO)C(O)C(O)C2O)c2cc(CO)cc(O)c21 (centres undefined)
> 100 µM (inactive)
